src = patent US20050080013A1

Target: T1, lecithin:cholesterol acyltransferase (LCAT), purified from human plasma (human, UniProt P04180 25-440)
T1 sequence (looked up): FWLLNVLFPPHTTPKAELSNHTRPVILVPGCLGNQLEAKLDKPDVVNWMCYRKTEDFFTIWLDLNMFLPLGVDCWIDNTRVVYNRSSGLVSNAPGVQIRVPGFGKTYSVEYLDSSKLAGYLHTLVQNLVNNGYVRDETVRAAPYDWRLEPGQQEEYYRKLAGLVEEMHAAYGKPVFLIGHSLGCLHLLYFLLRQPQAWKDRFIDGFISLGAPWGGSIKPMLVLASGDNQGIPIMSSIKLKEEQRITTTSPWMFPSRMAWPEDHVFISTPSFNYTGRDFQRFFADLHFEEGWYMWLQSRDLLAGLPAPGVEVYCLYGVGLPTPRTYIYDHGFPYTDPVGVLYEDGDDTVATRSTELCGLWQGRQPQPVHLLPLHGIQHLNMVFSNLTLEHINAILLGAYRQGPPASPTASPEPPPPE
Test: cell-based or functional assay
Non-standard residues stand in square brackets, D forms with d. No end group written: not given here. Aib = CC(C)(N)C(=O)O
readout.type: ACTIVITY (%) LCAT

PVLDLFRELLNEELEALKQKLK [peptide 98]    2
PVLDKFRELLNE[Aib]LEALKQKLK [peptide 88]    7

I = PVLDEFREKLNEELEALKQKLK [peptide 75]
II = PVLDAFRELGEALLQLKK [peptide 226]
(Q) Between I and II , which one shows the larger ACTIVITY (%) LCAT value? When you have decided, please share the label of that item.
(A) I
(I: 10%, II: 1%)

P = PVLELFLNLLEKLLDALQKKLK [peptide 166]
Q = PVLELFLNLLERLLDALQKKLK [peptide 156]
(Q) Between P and Q , whose recorded ACTIVITY (%) LCAT is greater? Field: selected label. Fill in the label of the entry you choose.
(A) Q
(Q: 35%, P: 22%)
